# Read-out: Monocyte Chemoattractant Protein-1 (MCP1), CCL2 (gene 6347)
# test.summary: BSK_3C_MCP1: BioMAP Diversity Plus: 3C Assay for Monocyte Chemoattractant Protein-1 (MCP1) Biomarker Activity (AID 2283017)
# condition.parameters: primary human endothelial cells (HUVEC); actives raise or lower the signal
Calls of active or inactive are those of the source. The calls were made as follows: active = hit-call score of the fitted dose curve at least 0.9, where 1 is the maximum; inactive = score below 0.9.
Labels: active, inactive

>  <molecule>
CC(C)(C)c1ccccc1OP(=O)(Oc1ccccc1)Oc1ccccc1

>  <class.assignment>
active

$$$$
>  <molecule>
CCNc1nc(Cl)nc(NC(C)(C)C)n1

>  <class.assignment>
inactive

$$$$
>  <molecule>
COP(=O)(CCC(=O)NCO)OC

>  <class.assignment>
inactive

$$$$
>  <molecule>
Cc1ccc2c(c1N)C(=O)c1ccccc1C2=O

>  <class.assignment>
inactive

$$$$
>  <molecule>
O=[N+]([O-])c1ccccc1

>  <class.assignment>
inactive

$$$$
>  <molecule>
O=P(Oc1ccccc1)(Oc1ccccc1)Oc1ccccc1

>  <class.assignment>
active

$$$$
>  <molecule>
Nc1ccc2ccccc2c1

>  <class.assignment>
inactive

$$$$
>  <molecule>
Cc1c([N+](=O)[O-])cc2c(c1[N+](=O)[O-])C(C)(C)CC2(C)C

>  <class.assignment>
inactive

$$$$
>  <molecule>
CCOc1ccc(C(C)(C)COCc2cccc(Oc3ccccc3)c2)cc1

>  <class.assignment>
inactive

$$$$
>  <molecule>
FC(F)(F)C(F)(C(F)(F)F)C(F)(F)C(F)(F)CC1CO1 (stereo not drawn)

>  <class.assignment>
inactive

$$$$
>  <molecule>
CCC1(c2ccccc2)C(=O)N=C(O)NC1=O (stereo not drawn)

>  <class.assignment>
inactive

$$$$
>  <molecule>
CCC(C)(C)c1ccc(O)cc1

>  <class.assignment>
inactive

$$$$
>  <molecule>
O=P(OCC(Br)CBr)(OCC(Br)CBr)OCC(Br)CBr (stereo not drawn)

>  <class.assignment>
active

$$$$

----------
# test.summary: CCTE_Mundy_HCI_Cortical_NOG_NeuriteCount: CCTE's Neurite Outgrowth Assay in rat cortical cells for Neurite Count, Mundy Lab (AID 2284212);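 also: cells fixed about two days after chemical exposure began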
Active and inactive are the calls of the source. Rule for the calls: active = hit-call score of the fitted dose curve at least 0.9, where 1 is the maximum; inactive = score below 0.9.
Outcome codes: active, inactive

>  <compound>
CCOc1ccc(C(C)(C)COCc2cccc(Oc3ccccc3)c2)cc1

>  <class.assignment>
active

$$$$
>  <compound>
CCOP(=S)(OCC)SCSCC

>  <class.assignment>
inactive

$$$$
>  <compound>
CO/N=C(/C(=O)OC)c1ccccc1COc1ccccc1C

>  <class.assignment>
active

$$$$
>  <compound>
O=P1(N(CCCl)CCCl)NCCCO1 (stereo not given)

>  <class.assignment>
inactive

$$$$
>  <compound>
CCC1(c2ccccc2)C(=O)N=C(O)NC1=O (stereo not given)

>  <class.assignment>
inactive

$$$$

----------
# target.desc: Estrogen receptor (Homo sapiens) (UniProt P03372)
# Sequence (P03372 whole entry, looked up): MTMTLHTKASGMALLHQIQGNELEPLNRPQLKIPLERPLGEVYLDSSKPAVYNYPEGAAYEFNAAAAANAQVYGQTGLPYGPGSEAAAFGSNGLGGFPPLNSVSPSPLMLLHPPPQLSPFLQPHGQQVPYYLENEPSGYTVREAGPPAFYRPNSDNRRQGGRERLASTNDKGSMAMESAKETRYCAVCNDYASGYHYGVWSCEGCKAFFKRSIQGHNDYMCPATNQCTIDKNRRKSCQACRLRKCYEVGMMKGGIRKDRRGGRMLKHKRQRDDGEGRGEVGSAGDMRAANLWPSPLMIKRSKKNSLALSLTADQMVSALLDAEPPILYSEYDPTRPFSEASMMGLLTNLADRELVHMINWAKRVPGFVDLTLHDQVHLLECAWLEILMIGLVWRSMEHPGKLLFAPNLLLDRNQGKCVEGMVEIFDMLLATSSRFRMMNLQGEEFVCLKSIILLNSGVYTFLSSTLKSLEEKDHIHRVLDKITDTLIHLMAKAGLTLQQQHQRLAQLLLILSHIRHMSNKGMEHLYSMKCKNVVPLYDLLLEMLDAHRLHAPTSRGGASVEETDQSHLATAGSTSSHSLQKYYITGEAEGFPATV
# test.summary: CCTE_Deisenroth_AIME_384WELL_LUC_Shift: CCTE's 384-well Estrogen Receptor Transactivation Assay with AIME metabolic competence data shift (ERTA luciferase; difference in metabolism positive and negative), Deisenroth Lab (AID 2284041);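 also: shift is response with S9 minus without S9 so positive means metabolism raised ER signal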
Active and inactive are the calls of the source. The calls were made as follows: active = hit-call score of the fitted dose curve at least 0.9, where 1 is the maximum; inactive = score below 0.9.
Labels: active, inactive

>  <compound>
COCCOCCO

>  <class.assignment>
inactive

$$$$
>  <compound>
CCCCN(CC)C(=O)SCCC

>  <class.assignment>
inactive

$$$$
>  <compound>
CCCCN(CCCC)SN(C)C(=O)Oc1cccc2c1OC(C)(C)C2

>  <class.assignment>
inactive

$$$$
>  <compound>
CCOC(=O)c1ccccc1C(=O)OCC

>  <class.assignment>
active

$$$$
>  <compound>
ClC(Cl)c1ccccc1

>  <class.assignment>
inactive

$$$$
>  <compound>
CCCN(CCC)c1c([N+](=O)[O-])cc(C(C)C)cc1[N+](=O)[O-]

>  <class.assignment>
inactive

$$$$
>  <compound>
CCOP(=S)(Oc1ccc([N+](=O)[O-])cc1)c1ccccc1 (stereo not drawn)

>  <class.assignment>
inactive

$$$$
>  <compound>
OCC1CO1 (stereo not drawn)

>  <class.assignment>
inactive

$$$$
>  <compound>
CCCCN(CCCC)N=O

>  <class.assignment>
active

$$$$
>  <compound>
Nc1ccc2ccccc2c1

>  <class.assignment>
inactive

$$$$
>  <compound>
O=c1ssc(Cl)c1Cl

>  <class.assignment>
inactive

$$$$
>  <compound>
Cc1cccc(N)c1

>  <class.assignment>
inactive

$$$$
>  <compound>
c1ccc(OP(Oc2ccccc2)Oc2ccccc2)cc1

>  <class.assignment>
active

$$$$
>  <compound>
CCC(C)(C)c1ccc(O)cc1

>  <class.assignment>
active

$$$$
>  <compound>
c1ccc2c(c1)Nc1ccccc1S2

>  <class.assignment>
inactive

$$$$
>  <compound>
CCCCc1ccccc1

>  <class.assignment>
inactive

$$$$
>  <compound>
COC(N)=O

>  <class.assignment>
inactive

$$$$
>  <compound>
CCCCc1ccc(O)cc1

>  <class.assignment>
inactive

$$$$

----------
# Read-out: Cytochrome P450 4A22 (Homo sapiens) (UniProt Q5TCH4)
# test.summary: LTEA_HepaRG_CYP4A22: Life Technologies and Expression Analysis (LTEA) Assay for Cytochrome P450 4A22 (CYP4A22) using HepaRG (AID 2283495)
# condition.parameters: mRNA level, 48 h; actives raise or lower the signal
Active and inactive are the calls of the source. The calls were made as follows: active = hit-call score of the fitted dose curve at least 0.9, where 1 is the maximum; inactive = score below 0.9.
attribute.measured: AC50

>  <molecular.string>
COCCOCCO

>  <endpoint.result>
inactive

$$$$
>  <molecular.string>
CCC(C)(C)c1ccc(O)cc1

>  <endpoint.result>
inactive

$$$$
>  <molecular.string>
Nc1cc2c3c(c1)C(c1ccccc1)=N[C@@H](NC(=O)c1cccnc1)C(=O)N3CC2

>  <endpoint.result>
10.9 µM (active)

$$$$
>  <molecular.string>
c1cc2c3c(cccc3c1)CC2

>  <endpoint.result>
inactive

$$$$

----------
# test.summary: CCTE_Shafer_MEA_dev_burst_duration_mean: CCTE's Neural Network Formation Assay for Mean Burst Duration, Shafer Lab (AID 2284045)
# Method: CCTE_Shafer_MEA_dev assay is conducted using Axion Biosystems 48 well microelectrode array (MEA) plates and Maestro recording system. Each well of the MEA plate contains a grid of 16 microelectrodes embedded in the culture surface. Electrically active cells, such as neurons, can be cultured over the electrodes, and electrical activity in these cells can be recorded extracellularly. […]
Calls of active or inactive are those of the source. Rule for the calls: active = hit-call score of the fitted dose curve at least 0.9, where 1 is the maximum; inactive = score below 0.9.
attribute.measured: outcome

>  <compound>
O=C(O)C(F)(OC(F)(F)C(F)(F)C(F)(F)F)C(F)(F)F (stereo not drawn)

>  <endpoint.result>
inactive

$$$$
>  <compound>
c1cc2c3c(cccc3c1)CC2

>  <endpoint.result>
inactive

$$$$
>  <compound>
O=C(O)C(F)(F)OC(F)(F)C(F)(F)OC(F)(F)F

>  <endpoint.result>
inactive

$$$$

----------
# test.summary: ATG_CRE_CIS: Attagene CIS-FACTORIAL HepG2 Assay for human cAMP Responsive Element (CRE) binding protein 3 (AID 2282926)
# condition.parameters: HepG2 CRE cis-reporter, Attagene multiplexed mRNA; actives raise or lower the signal
Activity calls are given as the source filed them. Rule for the calls: active = hit-call score of the fitted dose curve at least 0.9, where 1 is the maximum; inactive = score below 0.9.
Possible outcomes: active, inactive

>  <molecule>
COCCOCCO

>  <class.assignment>
inactive

$$$$
>  <molecule>
ClC(Cl)c1ccccc1

>  <class.assignment>
inactive

$$$$
>  <molecule>
Cc1ccc2c(c1N)C(=O)c1ccccc1C2=O

>  <class.assignment>
inactive

$$$$
>  <molecule>
Nc1ccc(Cl)cc1

>  <class.assignment>
inactive

$$$$
>  <molecule>
CCOP(=S)(NC(C)C)Oc1ccccc1C(=O)OC(C)C (stereo not given)

>  <class.assignment>
inactive

$$$$
>  <molecule>
COC(N)=O

>  <class.assignment>
inactive

$$$$
>  <molecule>
CC(C)(C)OOC(C)(C)C

>  <class.assignment>
inactive

$$$$
>  <molecule>
NNC(N)=S

>  <class.assignment>
inactive

$$$$
>  <molecule>
CCCCOCC1CO1 (stereo not given)

>  <class.assignment>
inactive

$$$$
>  <molecule>
Cc1cc(C)c(C(=O)P(=O)(c2ccccc2)c2ccccc2)c(C)c1

>  <class.assignment>
inactive

$$$$
>  <molecule>
CC(C)(C)c1ccccc1OP(=O)(Oc1ccccc1)Oc1ccccc1

>  <class.assignment>
inactive

$$$$
>  <molecule>
OCC1CO1 (stereo not given)

>  <class.assignment>
inactive

$$$$
>  <molecule>
CCCCC(CC)COP(=O)(Oc1ccccc1)Oc1ccccc1 (stereo not given)

>  <class.assignment>
inactive

$$$$
>  <molecule>
O=S1(=O)OCC2C(CO1)C1(Cl)C(Cl)=C(Cl)C2(Cl)C1(Cl)Cl (stereo not given)

>  <class.assignment>
active

$$$$
>  <molecule>
Nc1ccc(Sc2ccc(N)cc2)cc1

>  <class.assignment>
inactive

$$$$

----------
# Read-out: Interleukin-8 (IL8), CXCL8 (gene 3576)
# test.summary: BSK_MyoF_IL8: BioMAP Diversity Plus: MyoF Assay for Interleukin-8 (IL8) Biomarker Activity (AID 2284261)
# condition.parameters: primary human lung fibroblasts
Calls of active or inactive are those of the source. Rule for the calls: active = hit-call score of the fitted dose curve at least 0.9, where 1 is the maximum; inactive = score below 0.9.
Classes used: active, inactive

>  <compound>
O=C(O)C=CC(F)(C(F)(F)F)C(F)(F)F

>  <class.assignment>
inactive

$$$$
>  <compound>
N#Cc1cc([N+](=O)[O-])ccc1N

>  <class.assignment>
inactive

$$$$
>  <compound>
O=C(O)C(F)(F)OC(F)(F)C(F)(F)OC(F)(F)C(=O)O

>  <class.assignment>
inactive

$$$$
>  <compound>
COP(=O)(O)OC

>  <class.assignment>
inactive

$$$$
>  <compound>
CCCCC(CC)COP(=O)(Oc1ccccc1)Oc1ccccc1 (configuration not stated)

>  <class.assignment>
active

$$$$
>  <compound>
OCC(F)(F)OC(F)(F)C(F)(F)OC(F)(F)C(F)(F)OC(F)(F)F

>  <class.assignment>
inactive

$$$$
>  <compound>
C=CC(=O)OCC(F)(F)C(F)F

>  <class.assignment>
inactive

$$$$

Taken from PubChem BioAssay (EPA / NIEHS).
